- SYSTEM_NAME: TPR domain of AtToc64 (AtToc64_TPR-H6) (Arabidopsis thaliana)
- Construct: The region encompassing the TPR domain of AtToc64 was composed of residues 474–589; made in house; host or cells: E. coli BL21(DE3)
- METHOD_DESCRIPTION: biochemical
- Format: binding
Where no end group is shown, it is not given here.
REPORTED_ENDPOINT: pKd
Please keep in mind that pKd is minus log10 of the molar concentration; only the number is needed.

// below: answered sequences
TSRMEEVD [TSRMEEVD]: 3.66
GPTAEEVD [GPTAEEVD]: 2.33

// query # return recorded pKd for input GPTIEEVD [GPTIEEVD]
// result 3.64

// query Recall and state the measured pKd for TSRMEAVD [TSRMEAVD] .
// result 2.72

// query Read the entry TSRMEEVA [TSRMEEVA] and write its reported pKd.
// result 2.85
